- experimental_system: GPIIb-IIIa (Homo sapiens, UniProt P05106+P08514)
- Construct: Purified platelet GPIIb-IIIa receptor was prepared as described by Fitzgerald
- Sequence (P08514 32-887 limits assumed): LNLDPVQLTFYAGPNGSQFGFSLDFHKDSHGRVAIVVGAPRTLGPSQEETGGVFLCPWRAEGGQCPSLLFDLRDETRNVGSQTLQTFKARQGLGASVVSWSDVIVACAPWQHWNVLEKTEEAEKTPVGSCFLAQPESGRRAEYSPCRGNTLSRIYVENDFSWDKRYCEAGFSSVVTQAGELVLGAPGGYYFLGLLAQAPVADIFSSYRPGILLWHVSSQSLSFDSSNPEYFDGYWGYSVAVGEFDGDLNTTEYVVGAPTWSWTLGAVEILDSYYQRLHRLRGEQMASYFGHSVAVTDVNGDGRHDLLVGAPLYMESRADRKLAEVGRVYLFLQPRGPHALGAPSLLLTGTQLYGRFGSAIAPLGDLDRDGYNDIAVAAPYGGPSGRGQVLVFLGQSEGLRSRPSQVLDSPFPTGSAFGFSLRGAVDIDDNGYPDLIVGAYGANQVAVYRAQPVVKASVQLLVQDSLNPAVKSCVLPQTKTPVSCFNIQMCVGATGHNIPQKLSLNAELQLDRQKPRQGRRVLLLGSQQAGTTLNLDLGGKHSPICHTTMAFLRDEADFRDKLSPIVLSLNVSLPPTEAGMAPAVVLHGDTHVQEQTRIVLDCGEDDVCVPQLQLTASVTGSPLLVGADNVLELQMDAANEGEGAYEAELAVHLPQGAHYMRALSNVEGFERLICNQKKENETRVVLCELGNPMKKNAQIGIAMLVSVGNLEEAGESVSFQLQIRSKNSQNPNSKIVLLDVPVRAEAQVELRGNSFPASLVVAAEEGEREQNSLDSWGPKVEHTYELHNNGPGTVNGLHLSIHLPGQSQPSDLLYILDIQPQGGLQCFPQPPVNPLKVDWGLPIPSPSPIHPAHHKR
- Sequence (P08514 891-1039 limits assumed): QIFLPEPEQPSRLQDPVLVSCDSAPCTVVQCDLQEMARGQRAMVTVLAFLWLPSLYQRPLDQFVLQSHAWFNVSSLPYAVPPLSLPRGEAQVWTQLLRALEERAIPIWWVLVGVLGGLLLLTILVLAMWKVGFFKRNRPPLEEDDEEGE
- Sequence (P05106 27-788): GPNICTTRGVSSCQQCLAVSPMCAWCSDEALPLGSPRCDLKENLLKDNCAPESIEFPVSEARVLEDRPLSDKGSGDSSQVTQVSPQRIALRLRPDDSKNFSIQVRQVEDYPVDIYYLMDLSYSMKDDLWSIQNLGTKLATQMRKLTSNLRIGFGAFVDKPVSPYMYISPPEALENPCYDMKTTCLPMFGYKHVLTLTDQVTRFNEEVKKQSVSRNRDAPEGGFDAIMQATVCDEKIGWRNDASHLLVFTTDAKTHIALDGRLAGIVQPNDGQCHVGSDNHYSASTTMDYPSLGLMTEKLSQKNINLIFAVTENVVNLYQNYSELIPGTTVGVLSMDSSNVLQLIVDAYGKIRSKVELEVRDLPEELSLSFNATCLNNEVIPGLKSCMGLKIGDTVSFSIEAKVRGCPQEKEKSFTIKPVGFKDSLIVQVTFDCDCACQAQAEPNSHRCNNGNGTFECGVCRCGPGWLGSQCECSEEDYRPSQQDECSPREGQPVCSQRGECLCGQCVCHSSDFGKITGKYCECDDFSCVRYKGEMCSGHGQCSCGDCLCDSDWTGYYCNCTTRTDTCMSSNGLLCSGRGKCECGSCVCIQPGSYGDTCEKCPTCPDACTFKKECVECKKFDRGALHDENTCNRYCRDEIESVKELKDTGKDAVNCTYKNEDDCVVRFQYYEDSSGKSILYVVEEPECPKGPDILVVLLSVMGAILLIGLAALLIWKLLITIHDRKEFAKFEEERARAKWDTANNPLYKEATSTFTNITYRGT
- test_method_notes: ELISA IIb-IIIa assay (fibrinogen binding to immobilized purified GPIIb-IIIa)
- conditions: inhibition of fibrinogen binding to purified GPIIb-IIIa
pIC50: −log10 of the molar value.
Threshold check on pIC50: at or above 8 gives label 1, strictly below gives label 0.

Solved cases below.
INSERT INTO results (compound, label) VALUES
  ('Cc1ccc(S(=O)(=O)N[C@@H](CNC(=O)C2CCC3(CC2)CCN(c2ccncc2)CC3)C(=O)O)cc1 [Example 14]', 'label 1'),
  ('O=C(O)CN1CCN(C(=O)N2CCC3(CCN(c4ccncc4)CC3)C2)CC1=O [Example 27]', 'label 0'),
  ('O=C(O)CC(=O)N1CCC(C(=O)N2CCC3(CC2)CCN(c2ccncc2)CC3)CC1 [Example 12]', 'label 0');

Query: Say whether O=C(O)Cn1ccc2cc(C(=O)N3CCC4(CC3)CCN(c3ccncc3)C4)ccc21 [Example 53] shows pIC50 of 8 or more.
Reply: label 0

Query: Say whether O=C(O)Cc1csc(NC(=O)CN2CCC3(CC2)CCN(c2ccncc2)C3)n1 [Example 54] shows pIC50 of 8 or more.
Reply: label 0
